Test: Toxicity liver stage against HepG2, at 10uM
Format: cell-based
Design: test concentration 10 uM, cell line HepG2-A16-CD81EGFP
Settings: human, HepG2-A16-CD81EGFP cells; read-out: INHIBITION
measureName: cytotoxicity at 10 µM (%)

[
  {
    "compound": "O=C(COc1cccc(Cl)c1)N1CCOCC1c1ncon1 (stereo unspecified)",
    "measureName": "cytotoxicity at 10 µM",
    "recordedResult": -12.3
  },
  {
    "compound": "O=c1c2cccnc2cnn1CC(O)c1ccc(Br)cc1 (stereo unspecified)",
    "measureName": "cytotoxicity at 10 µM",
    "recordedResult": -2.59
  },
  {
    "compound": "CC(=O)NC1CCN(C(=O)c2cnc(COc3ccccc3)nc2O)C1 (stereo unspecified)",
    "measureName": "cytotoxicity at 10 µM",
    "recordedResult": -5.3
  },
  {
    "compound": "CCCN1CCc2c(C(=O)N(C)Cc3ccccn3)nn(C)c2C1",
    "measureName": "cytotoxicity at 10 µM",
    "recordedResult": -1.92
  },
  {
    "compound": "COc1c(CNCC(O)c2ccccc2)c(C(C)C)nn1C (stereo unspecified)",
    "measureName": "cytotoxicity at 10 µM",
    "recordedResult": -16.5
  },
  {
    "compound": "COc1c(C2CCCN2C(=O)c2c(C)noc2C)c(C)nn1C (stereo unspecified)",
    "measureName": "cytotoxicity at 10 µM",
    "recordedResult": 0.471
  },
  {
    "compound": "O=C(C1CC1)N1CCC(O)(CN2CCN(c3ccccc3)CC2)C1 (stereo unspecified)",
    "measureName": "cytotoxicity at 10 µM",
    "recordedResult": -3.3
  },
  {
    "compound": "Cc1ccc(O)c(C(=O)N2CCCC2CC(=O)c2cnn(C)c2)c1 (stereo unspecified)",
    "measureName": "cytotoxicity at 10 µM",
    "recordedResult": -3.81
  },
  {
    "compound": "COCC(=O)N1CCC2(CCC2NS(=O)(=O)c2ccccc2)CC1 (stereo unspecified)",
    "measureName": "cytotoxicity at 10 µM",
    "recordedResult": 0.073
  },
  {
    "compound": "CCOC(=O)[C@H]1[C@@H](O)C(=O)N(C)C12CCN(C(=O)CC1CCCC1)CC2",
    "measureName": "cytotoxicity at 10 µM",
    "recordedResult": -1
  },
  {
    "compound": "CCN(Cc1ccncc1)CC1(O)CCN(C(=O)c2cnn(C)c2)C1 (stereo unspecified)",
    "measureName": "cytotoxicity at 10 µM",
    "recordedResult": -26.9
  },
  {
    "compound": "Cc1nc2ncc3c(=O)n(C)ccc3n2n1",
    "measureName": "cytotoxicity at 10 µM",
    "recordedResult": -15.4
  },
  {
    "compound": "Cc1c(Cl)c(C(=O)NC(C)CN2CCOCC2)nn1C (stereo unspecified)",
    "measureName": "cytotoxicity at 10 µM",
    "recordedResult": -1.77
  },
  {
    "compound": "Cc1cc(C)c2c(N(C)CC3CCN(CC(C)C)C3)ncnc2n1 (stereo unspecified)",
    "measureName": "cytotoxicity at 10 µM",
    "recordedResult": 1.61
  },
  {
    "compound": "Cc1ccc(CN2CCO[C@H]3[C@@H](OCc4cccnc4)CC[C@@H]32)o1",
    "measureName": "cytotoxicity at 10 µM",
    "recordedResult": -0.58
  },
  {
    "compound": "CCC1CCC(NCCN2CCOCC2)CC1 (stereo unspecified)",
    "measureName": "cytotoxicity at 10 µM",
    "recordedResult": 3.62
  },
  {
    "compound": "CCc1nncn1CCNC(=O)N1CCCC(Cc2nccn2C)C1 (stereo unspecified)",
    "measureName": "cytotoxicity at 10 µM",
    "recordedResult": 0.548
  },
  {
    "compound": "O=C(c1ccn(-c2cccc(F)c2)n1)N1CCCC(n2cccn2)C1 (stereo unspecified)",
    "measureName": "cytotoxicity at 10 µM",
    "recordedResult": -5.25
  },
  {
    "compound": "O=C(Cn1ccc(=O)cc1)NCc1ccc2sccc2c1",
    "measureName": "cytotoxicity at 10 µM",
    "recordedResult": 0.592
  },
  {
    "compound": "Nc1cc(C(=O)N2C[C@@H]3CC[C@H]2CN(Cc2cccnc2)C3)ccn1",
    "measureName": "cytotoxicity at 10 µM",
    "recordedResult": 0.624
  },
  {
    "compound": "CCc1cnc(CN(C(C)=O)C2CCN(CC(=O)N3CCCC3)C2)o1 (stereo unspecified)",
    "measureName": "cytotoxicity at 10 µM",
    "recordedResult": -6.63
  },
  {
    "compound": "CC1=NN(CC(=O)N2CC[C@@H]3[C@@H](CCC(=O)N3CC(C)C)C2)CC1",
    "measureName": "cytotoxicity at 10 µM",
    "recordedResult": 0.88
  },
  {
    "compound": "O=C1NC2(CCN(Cc3cccnc3)CC2)CC1c1ccncc1 (stereo unspecified)",
    "measureName": "cytotoxicity at 10 µM",
    "recordedResult": 5.33
  },
  {
    "compound": "CCOc1ccccc1OC1CCN(C(=O)c2ccc(=O)[nH]n2)CC1",
    "measureName": "cytotoxicity at 10 µM",
    "recordedResult": -8.7
  },
  {
    "compound": "Cc1nc(C2CCCN2C(=O)Cn2cncn2)no1 (stereo unspecified)",
    "measureName": "cytotoxicity at 10 µM",
    "recordedResult": -2.51
  },
  {
    "compound": "O=C(c1cccc(CNCC2CNc3ccnn3C2)c1)N1CCCC1 (stereo unspecified)",
    "measureName": "cytotoxicity at 10 µM",
    "recordedResult": 6.26
  },
  {
    "compound": "CCN(Cc1ccco1)C(C)c1nc(C)no1 (stereo unspecified)",
    "measureName": "cytotoxicity at 10 µM",
    "recordedResult": -10.1
  },
  {
    "compound": "CCS(=O)(=O)NC(C(=O)NC)c1ccc(F)c(F)c1 (stereo unspecified)",
    "measureName": "cytotoxicity at 10 µM",
    "recordedResult": -9.06
  },
  {
    "compound": "Cc1cccc(NC(=O)N(CCC(F)(F)F)C[C@H](O)CO)c1",
    "measureName": "cytotoxicity at 10 µM",
    "recordedResult": 4.3
  },
  {
    "compound": "Cc1ccnc(OCC(=O)N2CCC(C(N)=O)CC2)n1",
    "measureName": "cytotoxicity at 10 µM",
    "recordedResult": -17.7
  },
  {
    "compound": "COCCCC1(CO)CCCN(CCOC)C1 (stereo unspecified)",
    "measureName": "cytotoxicity at 10 µM",
    "recordedResult": -1.87
  },
  {
    "compound": "C=Cn1ncc(CN2C[C@@H]3CCCN3C[C@H]2CCSC)c1C",
    "measureName": "cytotoxicity at 10 µM",
    "recordedResult": -4.12
  },
  {
    "compound": "COc1ccc(CNc2cnn(C)c(=O)c2Cl)cc1",
    "measureName": "cytotoxicity at 10 µM",
    "recordedResult": -3.45
  },
  {
    "compound": "CCN(Cc1ccoc1)C(=O)NC1CCN(C(=O)OC(C)(C)C)C1 (stereo unspecified)",
    "measureName": "cytotoxicity at 10 µM",
    "recordedResult": 3.65
  },
  {
    "compound": "CC(=O)NCc1ccc(C(=O)N2CCCC(n3cncn3)C2)o1 (stereo unspecified)",
    "measureName": "cytotoxicity at 10 µM",
    "recordedResult": 17.1
  },
  {
    "compound": "Cc1c(C2SCC(=O)Nc3c2c(O)nn3C2CCCCC2)cnn1C (stereo unspecified)",
    "measureName": "cytotoxicity at 10 µM",
    "recordedResult": 0.618
  }
]
